# reported G protein dissociation, AUC of 10 μM compound (maximal response); entries follow
target or system: hCB1 mutant F237A^4.46 (Homo sapiens, UniProt P21554, F237A)
Construct: expressed in transfected cells; host or cells: HEK293
Sequence (P21554 whole entry F237A): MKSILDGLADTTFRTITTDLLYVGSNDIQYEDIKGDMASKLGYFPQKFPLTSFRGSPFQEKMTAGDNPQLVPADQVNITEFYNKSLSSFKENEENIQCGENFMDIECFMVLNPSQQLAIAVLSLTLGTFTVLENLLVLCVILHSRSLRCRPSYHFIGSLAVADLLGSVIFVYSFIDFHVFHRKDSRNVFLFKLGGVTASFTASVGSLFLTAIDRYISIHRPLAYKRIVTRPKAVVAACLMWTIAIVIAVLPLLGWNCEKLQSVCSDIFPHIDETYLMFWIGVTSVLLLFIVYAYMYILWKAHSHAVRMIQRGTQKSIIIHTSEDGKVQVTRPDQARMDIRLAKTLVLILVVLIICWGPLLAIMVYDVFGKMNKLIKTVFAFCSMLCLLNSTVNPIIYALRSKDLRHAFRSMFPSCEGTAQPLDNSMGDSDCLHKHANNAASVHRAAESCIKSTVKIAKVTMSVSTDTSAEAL
experimental protocol: pIRES G protein dissociation BRET assay, F237A mutant
Type: cell-based
measurement context: 10 μM ligand alone
measured parameter: G protein dissociation, AUC of 10 μM compound (maximal response)

* Cc1ccc2c(C(C[N+](=O)[O-])c3cccs3)c(-c3ccccc3)[nH]c2c1 (stereo not shown) [ZCZ011] | −64.2
* CCCCCCC(C)(C)c1ccc([C@@H]2C[C@H](O)CC[C@H]2CCCO)c(O)c1 [CP55940] | −69.8
* O=[N+]([O-])C[C@H](c1ccccc1)c1c(-c2ccccc2)[nH]c2ccccc12 [GAT228] | −40.8
* O=[N+]([O-])C[C@@H](c1ccccc1)c1c(-c2ccccc2)[nH]c2ccccc12 [GAT229] | −52.4

###

target or system: hCB1 mutant L209A^3.45 (Homo sapiens, UniProt P21554, L209A)
Construct: expressed in transfected cells; host or cells: HEK293
Sequence (P21554 whole entry L209A): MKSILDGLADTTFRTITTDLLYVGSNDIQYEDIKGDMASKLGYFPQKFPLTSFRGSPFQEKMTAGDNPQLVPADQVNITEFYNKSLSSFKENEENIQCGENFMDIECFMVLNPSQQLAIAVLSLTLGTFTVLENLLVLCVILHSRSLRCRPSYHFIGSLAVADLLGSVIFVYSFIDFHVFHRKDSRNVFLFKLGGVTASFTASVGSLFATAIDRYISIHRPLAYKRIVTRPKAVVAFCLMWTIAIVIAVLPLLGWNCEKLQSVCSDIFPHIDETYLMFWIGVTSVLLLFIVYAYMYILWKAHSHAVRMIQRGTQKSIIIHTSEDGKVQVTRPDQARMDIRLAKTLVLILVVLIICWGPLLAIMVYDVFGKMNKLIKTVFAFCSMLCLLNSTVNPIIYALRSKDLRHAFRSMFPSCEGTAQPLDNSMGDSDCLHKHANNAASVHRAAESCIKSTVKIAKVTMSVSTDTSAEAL
experimental protocol: pIRES G protein dissociation BRET assay, L209A mutant
Type: cell-based
measurement context: 10 μM ligand alone
Catalogue of G protein dissociation, AUC of 10 μM compound (maximal response) values
measured parameter: G protein dissociation, AUC of 10 μM compound (maximal response)

• O=[N+]([O-])C[C@H](c1ccccc1)c1c(-c2ccccc2)[nH]c2ccccc12 = −19.0
• CCCCCCC(C)(C)c1ccc([C@@H]2C[C@H](O)CC[C@H]2CCCO)c(O)c1 = −42.7
• O=[N+]([O-])C[C@@H](c1ccccc1)c1c(-c2ccccc2)[nH]c2ccccc12 = −25.1
• Cc1ccc2c(C(C[N+](=O)[O-])c3cccs3)c(-c3ccccc3)[nH]c2c1 (stereo not shown) = −34.4

###

target or system: hCB1 mutant Y172A^2.59 (Homo sapiens, UniProt P21554, Y172A)
Construct: expressed in transfected cells; host or cells: HEK293
Sequence (P21554 whole entry Y172A): as the sequence (P21554 whole entry L209A) above, with Y172A, A209L counted along it
experimental protocol: pIRES G protein dissociation BRET assay, Y172A mutant
Format: cell-based
measurement context: 10 μM ligand alone
Catalogue of G protein dissociation, AUC of 10 μM compound (maximal response) readings, one per entry.
measured parameter: G protein dissociation, AUC of 10 μM compound (maximal response)

- CCCCCCC(C)(C)c1ccc([C@@H]2C[C@H](O)CC[C@H]2CCCO)c(O)c1: −284.7 ± 8.4
- O=[N+]([O-])C[C@@H](c1ccccc1)c1c(-c2ccccc2)[nH]c2ccccc12: −207.0 ± 7.1
- Cc1ccc2c(C(C[N+](=O)[O-])c3cccs3)c(-c3ccccc3)[nH]c2c1 (stereo not shown): −142.1 ± 14.4
- O=[N+]([O-])C[C@H](c1ccccc1)c1c(-c2ccccc2)[nH]c2ccccc12: −133.4 ± 9.8

###

target or system: hCB1 mutant K232A^4.41 (Homo sapiens, UniProt P21554, K232A)
Construct: expressed in transfected cells; host or cells: HEK293
Sequence (P21554 whole entry K232A): as the sequence (P21554 whole entry F237A) above, with K232A, A237F counted along it
experimental protocol: pIRES G protein dissociation BRET assay, K232A mutant
Format: cell-based
measurement context: 10 μM ligand alone
measured parameter: G protein dissociation, AUC of 10 μM compound (maximal response)

• Cc1ccc2c(C(C[N+](=O)[O-])c3cccs3)c(-c3ccccc3)[nH]c2c1 (stereo not shown) [ZCZ011] = −140.0
• O=[N+]([O-])C[C@H](c1ccccc1)c1c(-c2ccccc2)[nH]c2ccccc12 [GAT228] = −94.0
• CCCCCCC(C)(C)c1ccc([C@@H]2C[C@H](O)CC[C@H]2CCCO)c(O)c1 [CP55940] = −167.7
• O=[N+]([O-])C[C@@H](c1ccccc1)c1c(-c2ccccc2)[nH]c2ccccc12 [GAT229] = −134.5

###

target or system: hCB1 mutant I169A^2.56 (Homo sapiens, UniProt P21554, I169A)
Construct: expressed in transfected cells; host or cells: HEK293
Sequence (P21554 whole entry I169A): as the sequence (P21554 whole entry F237A) above, with I169A, A237F counted along it
experimental protocol: pIRES G protein dissociation BRET assay, I169A mutant
Assay type: cell-based
measurement context: 10 μM ligand alone
Below: a set of entries, each annotated with reported G protein dissociation, AUC of 10 μM compound (maximal response).
measured parameter: G protein dissociation, AUC of 10 μM compound (maximal response)

* CCCCCCC(C)(C)c1ccc([C@@H]2C[C@H](O)CC[C@H]2CCCO)c(O)c1 [CP55940] | −113.1
* Cc1ccc2c(C(C[N+](=O)[O-])c3cccs3)c(-c3ccccc3)[nH]c2c1 (stereo not shown) [ZCZ011] | −20.0
* O=[N+]([O-])C[C@@H](c1ccccc1)c1c(-c2ccccc2)[nH]c2ccccc12 [GAT229] | 54.8
* O=[N+]([O-])C[C@H](c1ccccc1)c1c(-c2ccccc2)[nH]c2ccccc12 [GAT228] | 30.0
